The measurements presented in this section are drawn from patent US20230087342A1.

biological target: human κ opioid receptors (Homo sapiens, UniProt P41145); test: Opioid receptor function test (Lance Ultra cAMP kit, agonist activity); details: CHO cells expressing human κ opioid receptors, 10 μM forskolin, 30 minutes
Sequence (P41145 whole entry): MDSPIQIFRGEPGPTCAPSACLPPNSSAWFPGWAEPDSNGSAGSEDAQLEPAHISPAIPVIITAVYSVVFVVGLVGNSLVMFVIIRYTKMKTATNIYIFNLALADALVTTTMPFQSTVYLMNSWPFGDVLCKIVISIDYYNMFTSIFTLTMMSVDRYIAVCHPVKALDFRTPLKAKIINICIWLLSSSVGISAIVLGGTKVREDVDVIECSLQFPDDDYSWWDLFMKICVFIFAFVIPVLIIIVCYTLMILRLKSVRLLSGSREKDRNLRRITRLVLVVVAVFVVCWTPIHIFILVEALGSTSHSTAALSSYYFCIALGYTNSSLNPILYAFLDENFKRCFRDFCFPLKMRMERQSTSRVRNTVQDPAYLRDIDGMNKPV
Experimental readout: EC50
I'd appreciate it if you included the unit after the number.

// known answers, use as guide
Compound smiles	Result
Cc1cccnc1CCN1CC[C@]23CCN(CC4CC4)[C@H](Cc4ccc(O)cc42)[C@]3(O)CC1	0.13 nM
Oc1ccc2c(c1)[C@@]13CCN(CCc4cc[nH]n4)CC[C@@]1(O)[C@@H](C2)N(CC1CC1)CC3	0.13 nM
O=C(Cc1ccccn1)N1CC[C@]23CCN(CC4CC4)[C@H](Cc4cc(Cl)c(O)cc42)[C@]3(O)CC1	0.6 nM
Cc1cnn(CC(=O)N2CC[C@]34CCN(CC5CC5)[C@H](Cc5cc(C)c(O)cc53)[C@]4(O)CC2)c1	0.33 nM
Cc1cnn(CCC(=O)N2CC[C@]34CCN(CC5CC5)[C@H](Cc5ccc(O)cc53)[C@]4(O)CC2)c1	0.26 nM
Cc1cnn(CCN2CC[C@]34CCN(C[C@@H]5C[C@@H]5F)[C@H](Cc5ccc(O)cc53)[C@]4(O)CC2)c1	0.23 nM

Let's switch to this compound now.
Task: State its EC50: Oc1ccc2c(c1)[C@@]13CCN(CCc4nccs4)CC[C@@]1(O)[C@@H](C2)N(CC1CC1)CC3
Output: 0.11 nM
